- target: T1, soluble recombinant human uPAR/His6 (R&D Systems, Cat. # 807-UK-100) (human, UniProt Q03405 23-303)
- T1 construct: range 1-303; Bought protein; also called soluble uPAR; hu-uPAR
- T1 sequence (Q03405 other isoform, or with tags, fused parts or gaps limits assumed, form in doubt): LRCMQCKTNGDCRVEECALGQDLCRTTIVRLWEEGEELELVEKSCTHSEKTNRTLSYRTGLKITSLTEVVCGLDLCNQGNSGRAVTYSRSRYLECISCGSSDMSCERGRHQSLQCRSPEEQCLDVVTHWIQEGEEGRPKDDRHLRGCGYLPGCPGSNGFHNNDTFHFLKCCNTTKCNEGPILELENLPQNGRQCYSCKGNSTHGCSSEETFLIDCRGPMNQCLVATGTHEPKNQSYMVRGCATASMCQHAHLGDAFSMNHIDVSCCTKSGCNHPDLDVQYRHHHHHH
- testDescription: low resolution Biacore, mAb captured by goat anti-human, hu-uPAR 312 nM;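 also: surface plasmon resonance on a CM5 chip with goat anti-human antibody surface made by amine coupling, each mAb from supernatant captured per flow cell, kinetics fitted including mass transport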
Listed below: kon values for each entry.
readoutType: kon (M⁻¹ s⁻¹)

{"binder": "anti-uPAR monoclonal antibody 1.61.1 (antibody, V domains shown) VH: EVQLVESGGGLVQPGGSLRLSCAASGFTFSSYDMHWVRQATGKGLEWVSAIGTAGDTYYPGSVKGRFTISRENAKNSLYLQMNSLRAGDTAVYYCAREGDYSNYFTRVRGVTYGMDVWGQGTTVTVSS VL: DIQMTQSPSSLSASVGDRVTITCRASQGISKYLAWFQQKPGKAPKSLIYGASSLQSGVPSKFSGSGSGTDFTLTISSLQPEDFATYYCQQYNSYPLTFGGGTKVEIK", "valueObserved": 94000}
{"binder": "fully human monoclonal antibody 4.18.1 (ATCC Accession Number PTA-7476) (antibody, V domains shown) VH: EVQLVESGGGLIQPGGSLRLSCAASGFTVRNNYMNWVRQAPGKGLEWVSVIYTGGSTYYADSVKGRFTISRDNSRNTLYLQMNSLRAEDTAVYYCAREGAVAGFDYWGQGTLVTVSL VL: EIVMTQFPATLSMSPGERATLSCRASQSVSSSLAWYQQTPGQAPRLLIYGASTRSTGFPARFSGIGSGTEFTLTISSLQSEDFAVYYCQQYGNWPLTFGQGTRLEIK", "valueObserved": 110000}
{"binder": "fully human monoclonal antibody 2.6.1 (ATCC Accession Number PTA-7475) (antibody, V domains shown, also called mAb 2.6.1) VH: EVQLVESGGGLIQPGGSLRLSCAASGFTVITNYMNWVRQAPGKGLEWVSIIYTGGSTSYADSVKGRFTVSRDNSKNTLYLHMNSLRVEDTAVYYCAREIAVAGYYGMDVWGQGTTVTVS VL: DIQMTQSPSSLSASVGDRVTITCRASQGIRNDLGWYQQKPGKAPKRLIYAASSLQSGVPSRFSGSGSGTEFTLTISSLQPEDFATYYCLQHNSYPLTFGGGTRVEIK", "valueObserved": 81000}
{"binder": "anti-uPAR monoclonal antibody 3.8.3 (antibody, V domains shown) VH: EVQLVESGGGLVQPGGSLRLSCAASGFTFSSYWMSWVRQAPGKGLEWVANIKQHGSEKYYVDSVKGRFTISRDNAKNSLYLQMNSLRAEDTAVYYCAREEAYYYDNSGYYWYFDLWARGTLVTVSS VL: DIQMTQSPSSVSASIGDRVTITCRASQGISSWLAWYQQKPGKTPKLLIYAASSLQSGVPSRFSGSGSGTDFTLTISSLQPEDFATYYCQQADSFPWTFGQGTKVEIK", "valueObserved": 22000}
